# protocolDescription: Plasma pharmacokinetics after single ascending doses (SAD), phase 1
# Type: in vivo, human (healthy adult participants)
# details: human, single 1-h IV infusion 25 mg, plasma, apparent terminal half-life, n = 5, arithmetic mean ± SD
Where a SMILES comes first, the peptide text is derived from it. Bridges are numbered along the chain shown (N, C = ends). [ ]: non-standard residue; d: D form. The star is where a group is joined. X1 = O=C(c1ccc(Cl)cc1Cl)*; Dab = NCC[C@H](N)C(=O)O; Abu = CC[C@H](N)C(=O)O; Dap = NC[C@H](N)C(=O)O
readoutType: half-life (h)
Give just the numeric value; h need not be written.

Req: half-life for CC[C@@H]1NC(=O)[C@@H](CC(C)C)NC(=O)[C@H](CCN)NC(=O)[C@@H](NC(=O)[C@H](CN)NC(=O)[C@@H](NC(=O)[C@H](CCN)NC(=O)c2ccc(Cl)cc2Cl)[C@@H](C)O)CCNC(=O)[C@H]([C@@H](C)O)NC(=O)[C@H](CCN)NC(=O)[C@H](CCN)NC1=O [BRII-693] (X1-[Dab]T[Dap][Dab][Dab][dL][Abu][Dab][Dab]T; lactam 4-C; N-terminus assumed) ?
Resp: 3.22

###

# protocolDescription: Plasma pharmacokinetics after single ascending doses (SAD), phase 1
# Type: in vivo, human (healthy adult participants)
# details: human, single 1-h IV infusion 100 mg, plasma, n = 6, arithmetic mean ± SD
Where a SMILES comes first, the peptide text is derived from it. Bridges are numbered along the chain shown (N, C = ends). [ ]: non-standard residue; d: D form. The star is where a group is joined. X1 = O=C(c1ccc(Cl)cc1Cl)*; Dab = NCC[C@H](N)C(=O)O; Abu = CC[C@H](N)C(=O)O; Dap = NC[C@H](N)C(=O)O
readoutType: Cmax (ng/mL)
Give just the numeric value; ng/mL need not be written.

Req: Cmax for CC[C@@H]1NC(=O)[C@@H](CC(C)C)NC(=O)[C@H](CCN)NC(=O)[C@@H](NC(=O)[C@H](CN)NC(=O)[C@@H](NC(=O)[C@H](CCN)NC(=O)c2ccc(Cl)cc2Cl)[C@@H](C)O)CCNC(=O)[C@H]([C@@H](C)O)NC(=O)[C@H](CCN)NC(=O)[C@H](CCN)NC1=O [BRII-693] (X1-[Dab]T[Dap][Dab][Dab][dL][Abu][Dab][Dab]T; lactam 4-C; N-terminus assumed) ?
Resp: 6710

###

# protocolDescription: Plasma pharmacokinetics after multiple ascending doses (MAD), phase 1
# Type: in vivo, human (healthy adult participants)
# details: human, plasma, iv, 100 mg, First q6h dose (day 3), 7-day MAD 100 mg q6h × 7, n = 3, arithmetic mean ± SD
Where a SMILES comes first, the peptide text is derived from it. Bridges are numbered along the chain shown (N, C = ends). [ ]: non-standard residue; d: D form. The star is where a group is joined. X1 = O=C(c1ccc(Cl)cc1Cl)*; Dab = NCC[C@H](N)C(=O)O; Abu = CC[C@H](N)C(=O)O; Dap = NC[C@H](N)C(=O)O
readoutType: clearance (mL/min)
Give just the numeric value; mL/min need not be written.

Req: clearance for CC[C@@H]1NC(=O)[C@@H](CC(C)C)NC(=O)[C@H](CCN)NC(=O)[C@@H](NC(=O)[C@H](CN)NC(=O)[C@@H](NC(=O)[C@H](CCN)NC(=O)c2ccc(Cl)cc2Cl)[C@@H](C)O)CCNC(=O)[C@H]([C@@H](C)O)NC(=O)[C@H](CCN)NC(=O)[C@H](CCN)NC1=O [BRII-693] (X1-[Dab]T[Dap][Dab][Dab][dL][Abu][Dab][Dab]T; lactam 4-C; N-terminus assumed) ?
Resp: 80.5

###

# protocolDescription: Plasma pharmacokinetics after single ascending doses (SAD), phase 1
# Format: in vivo, human (healthy adult participants)
# details: human, plasma, single 1-h IV infusion 200 mg, total clearance, n = 6, arithmetic mean ± SD
Where a SMILES comes first, the peptide text is derived from it. Bridges are numbered along the chain shown (N, C = ends). [ ]: non-standard residue; d: D form. The star is where a group is joined. X1 = O=C(c1ccc(Cl)cc1Cl)*; Dab = NCC[C@H](N)C(=O)O; Abu = CC[C@H](N)C(=O)O; Dap = NC[C@H](N)C(=O)O
readoutType: clearance (mL/min)
Give just the numeric value; mL/min need not be written.

Req: clearance for CC[C@@H]1NC(=O)[C@@H](CC(C)C)NC(=O)[C@H](CCN)NC(=O)[C@@H](NC(=O)[C@H](CN)NC(=O)[C@@H](NC(=O)[C@H](CCN)NC(=O)c2ccc(Cl)cc2Cl)[C@@H](C)O)CCNC(=O)[C@H]([C@@H](C)O)NC(=O)[C@H](CCN)NC(=O)[C@H](CCN)NC1=O [BRII-693] (X1-[Dab]T[Dap][Dab][Dab][dL][Abu][Dab][Dab]T; lactam 4-C; N-terminus assumed) ?
Resp: 68.5

###

# protocolDescription: Plasma pharmacokinetics after single ascending doses (SAD), phase 1
# Assay type: in vivo, human (healthy adult participants)
# details: human, single 1-h IV infusion 25 mg, plasma, n = 5, arithmetic mean ± SD, read-out: AUC0–6h
Where a SMILES comes first, the peptide text is derived from it. Bridges are numbered along the chain shown (N, C = ends). [ ]: non-standard residue; d: D form. The star is where a group is joined. X1 = O=C(c1ccc(Cl)cc1Cl)*; Dab = NCC[C@H](N)C(=O)O; Abu = CC[C@H](N)C(=O)O; Dap = NC[C@H](N)C(=O)O
readoutType: AUC(0-t) (µg·h/mL)
Give just the numeric value; µg·h/mL need not be written.

Req: AUC(0-t) for CC[C@@H]1NC(=O)[C@@H](CC(C)C)NC(=O)[C@H](CCN)NC(=O)[C@@H](NC(=O)[C@H](CN)NC(=O)[C@@H](NC(=O)[C@H](CCN)NC(=O)c2ccc(Cl)cc2Cl)[C@@H](C)O)CCNC(=O)[C@H]([C@@H](C)O)NC(=O)[C@H](CCN)NC(=O)[C@H](CCN)NC1=O [BRII-693] (X1-[Dab]T[Dap][Dab][Dab][dL][Abu][Dab][Dab]T; lactam 4-C; N-terminus assumed) ?
Resp: 4.39

###

# protocolDescription: Plasma pharmacokinetics after single ascending doses (SAD), phase 1
# Type: in vivo, human (healthy adult participants)
# details: human, plasma, single 1-h IV infusion 25 mg, volume of distribution during terminal phase, n = 5, arithmetic mean ± SD, read-out: VZ
Where a SMILES comes first, the peptide text is derived from it. Bridges are numbered along the chain shown (N, C = ends). [ ]: non-standard residue; d: D form. The star is where a group is joined. X1 = O=C(c1ccc(Cl)cc1Cl)*; Dab = NCC[C@H](N)C(=O)O; Abu = CC[C@H](N)C(=O)O; Dap = NC[C@H](N)C(=O)O
readoutType: Vd (L)
Give just the numeric value; L need not be written.

Req: Vd for CC[C@@H]1NC(=O)[C@@H](CC(C)C)NC(=O)[C@H](CCN)NC(=O)[C@@H](NC(=O)[C@H](CN)NC(=O)[C@@H](NC(=O)[C@H](CCN)NC(=O)c2ccc(Cl)cc2Cl)[C@@H](C)O)CCNC(=O)[C@H]([C@@H](C)O)NC(=O)[C@H](CCN)NC(=O)[C@H](CCN)NC1=O [BRII-693] (X1-[Dab]T[Dap][Dab][Dab][dL][Abu][Dab][Dab]T; lactam 4-C; N-terminus assumed) ?
Resp: 20.7

###

# protocolDescription: Plasma pharmacokinetics after multiple ascending doses (MAD), phase 1
# Type: in vivo, human (healthy adult participants)
# details: human, plasma, iv, 150 mg, Last q6h dose (day 9), 7-day MAD 150 mg q6h × 7, plasma, n = 5, arithmetic mean ± SD
Where a SMILES comes first, the peptide text is derived from it. Bridges are numbered along the chain shown (N, C = ends). [ ]: non-standard residue; d: D form. The star is where a group is joined. X1 = O=C(c1ccc(Cl)cc1Cl)*; Dab = NCC[C@H](N)C(=O)O; Abu = CC[C@H](N)C(=O)O; Dap = NC[C@H](N)C(=O)O
readoutType: Cmax

Req: Cmax for CC[C@@H]1NC(=O)[C@@H](CC(C)C)NC(=O)[C@H](CCN)NC(=O)[C@@H](NC(=O)[C@H](CN)NC(=O)[C@@H](NC(=O)[C@H](CCN)NC(=O)c2ccc(Cl)cc2Cl)[C@@H](C)O)CCNC(=O)[C@H]([C@@H](C)O)NC(=O)[C@H](CCN)NC(=O)[C@H](CCN)NC1=O [BRII-693] (X1-[Dab]T[Dap][Dab][Dab][dL][Abu][Dab][Dab]T; lactam 4-C; N-terminus assumed) ?
Resp: 11700 ng/mL

Recorded values, source paper PMC11784026.
